Value source: PubChem BioAssay AID1963432

Test system: SYO-1 complex spheroid growth, percent test/control
MEASUREMENT_DESCRIPTION: Anticancer human tumor SYO-1 cell line growth inhibition [Asc]
PARTICULARS: second compound 0.0316 µM; first compound 0.00949 µM; hits give low values
Excerpt: Multicellular complex tumor spheroid response to apoptosis pathway targeting inhibitors Alrizomadlin, Pelcitoclax, and Dasminapant in combination with a variety of drugs and investigational agents in selected tumor cell lines […] Compounds. […] If the clinical Cmax for an agent had not been determined, the highest concentration tested was 10 microM. […]
Collected viability, T/C values appear next to each entry.
MEASURED_METRIC: viability, T/C (%)

MOLECULE	MEASURED_METRIC	MEAS_VALUE
NC(=O)C(=Cn1cnc(-c2cc(C(F)(F)F)cc(C(F)(F)F)c2)n1)c1cncnc1 + Cc1c(S(C)(=O)=O)c(-c2cc(F)cc(N3CCN(c4ccc(NS(=O)(=O)c5ccc(NC(CCN6CCC(C(=O)OCCCP(=O)(O)O)CC6)CSc6ccccc6)c(S(=O)(=O)C(F)(F)F)c5)cc4)CC3)c2)c(-c2ccc(Cl)cc2)n1C(C)C	viability, T/C	86.8
CCN1C(C(=O)NC23CCC(C(=O)O)(CC2)CC3)C(c2cccc(Cl)c2F)C2(C(=O)Nc3cc(Cl)ccc32)C12CCCCC2 (stereo not drawn) + Cc1c(S(C)(=O)=O)c(-c2cc(F)cc(N3CCN(c4ccc(NS(=O)(=O)c5ccc(NC(CCN6CCC(C(=O)OCCCP(=O)(O)O)CC6)CSc6ccccc6)c(S(=O)(=O)C(F)(F)F)c5)cc4)CC3)c2)c(-c2ccc(Cl)cc2)n1C(C)C	viability, T/C	97.6
Cc1nc(N2CCC3(CC2)COC(C)C3N)c(CO)nc1Sc1ccnc(N)c1Cl (stereo not drawn) + CNC(C)C(=O)NC1CN(S(=O)(=O)c2cccc(S(=O)(=O)N3CCC4CCC(C(=O)NC(c5ccccc5)c5ccccc5)N4C(=O)C(NC(=O)C(C)NC)C3)c2)CCC2CCC(C(=O)NC(c3ccccc3)c3ccccc3)N2C1=O	viability, T/C	111

----------
Collected viability, T/C values appear next to each entry.
Tested on: SYO-1 complex spheroid growth, percent test/control
MEASUREMENT_DESCRIPTION: Anticancer human tumor SYO-1 cell line growth inhibition [Asc];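 note: compound exposure lasted 7 days after spheroids grew 3 days; 100% = DMSO vehicle control viability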
PARTICULARS: second compound 10 µM; first compound 0.00316 µM; hits give low values
MEASURED_METRIC: viability, T/C (%)

COMPOUND	SCALE_UNIT	MEAS_VALUE
CCN1CCN(Cc2ccc(Nc3ncc(F)c(-c4cc(F)c5nc(C)n(C(C)C)c5c4)n3)nc2)CC1 + Cc1c(S(C)(=O)=O)c(-c2cc(F)cc(N3CCN(c4ccc(NS(=O)(=O)c5ccc(NC(CCN6CCC(C(=O)OCCCP(=O)(O)O)CC6)CSc6ccccc6)c(S(=O)(=O)C(F)(F)F)c5)cc4)CC3)c2)c(-c2ccc(Cl)cc2)n1C(C)C	%	87.5
CNC(C)C(=O)NC1CN(S(=O)(=O)c2cccc(S(=O)(=O)N3CCC4CCC(C(=O)NC(c5ccccc5)c5ccccc5)N4C(=O)C(NC(=O)C(C)NC)C3)c2)CCC2CCC(C(=O)NC(c3ccccc3)c3ccccc3)N2C1=O (stereo not drawn) + Cc1c(S(C)(=O)=O)c(-c2cc(F)cc(N3CCN(c4ccc(NS(=O)(=O)c5ccc(NC(CCN6CCC(C(=O)OCCCP(=O)(O)O)CC6)CSc6ccccc6)c(S(=O)(=O)C(F)(F)F)c5)cc4)CC3)c2)c(-c2ccc(Cl)cc2)n1C(C)C	%	94.7
COc1c(OCCCN2CCOCC2)ccc2c3n(c(=NC(=O)c4cnc(N)nc4)nc12)CCN3 + Cc1c(S(C)(=O)=O)c(-c2cc(F)cc(N3CCN(c4ccc(NS(=O)(=O)c5ccc(NC(CCN6CCC(C(=O)OCCCP(=O)(O)O)CC6)CSc6ccccc6)c(S(=O)(=O)C(F)(F)F)c5)cc4)CC3)c2)c(-c2ccc(Cl)cc2)n1C(C)C	%	83.2

----------
Collected viability, T/C values appear next to each entry.
System: SYO-1 complex spheroid growth, percent test/control
MEASUREMENT_DESCRIPTION: Anticancer human tumor SYO-1 cell line growth inhibition [Asc];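 note: compound exposure lasted 7 days after spheroids grew 3 days; 100% = DMSO vehicle control viability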
PARTICULARS: second compound 0.1 µM; first compound 3.16 µM; hits give low values

COMPOUND	viability, T/C
C=CC(=O)N1CCN(c2nc(=O)n(-c3c(C)ccnc3C(C)C)c3nc(-c4c(O)cccc4F)c(F)cc23)C(C)C1 (stereo not given) + Cc1c(S(C)(=O)=O)c(-c2cc(F)cc(N3CCN(c4ccc(NS(=O)(=O)c5ccc(NC(CCN6CCC(C(=O)OCCCP(=O)(O)O)CC6)CSc6ccccc6)c(S(=O)(=O)C(F)(F)F)c5)cc4)CC3)c2)c(-c2ccc(Cl)cc2)n1C(C)C	99.7%
O=C(c1cc(Cc2n[nH]c(=O)c3ccccc23)ccc1F)N1CCN(C(=O)C2CC2)CC1 + Cc1c(S(C)(=O)=O)c(-c2cc(F)cc(N3CCN(c4ccc(NS(=O)(=O)c5ccc(NC(CCN6CCC(C(=O)OCCCP(=O)(O)O)CC6)CSc6ccccc6)c(S(=O)(=O)C(F)(F)F)c5)cc4)CC3)c2)c(-c2ccc(Cl)cc2)n1C(C)C	13.1%
C=CC(=O)N1CCN(c2nc(=O)n(-c3c(C)ccnc3C(C)C)c3nc(-c4c(O)cccc4F)c(F)cc23)C(C)C1 (stereo not given) + CNC(C)C(=O)NC1CN(S(=O)(=O)c2cccc(S(=O)(=O)N3CCC4CCC(C(=O)NC(c5ccccc5)c5ccccc5)N4C(=O)C(NC(=O)C(C)NC)C3)c2)CCC2CCC(C(=O)NC(c3ccccc3)c3ccccc3)N2C1=O	98.1%
C#Cc1c(F)ccc2cc(O)cc(-c3ncc4c(N5CC6CCC(C5)N6)nc(OCC56CCCN5CC(F)C6)nc4c3F)c12 (stereo not given) + CNC(C)C(=O)NC1CN(S(=O)(=O)c2cccc(S(=O)(=O)N3CCC4CCC(C(=O)NC(c5ccccc5)c5ccccc5)N4C(=O)C(NC(=O)C(C)NC)C3)c2)CCC2CCC(C(=O)NC(c3ccccc3)c3ccccc3)N2C1=O	120%
C=C(F)C(=O)N1CCN(c2nc(OCC3CCCN3C)nc3c2CCN(c2cccc4cccc(Cl)c24)C3)CC1CC#N (stereo not given) + Cc1c(S(C)(=O)=O)c(-c2cc(F)cc(N3CCN(c4ccc(NS(=O)(=O)c5ccc(NC(CCN6CCC(C(=O)OCCCP(=O)(O)O)CC6)CSc6ccccc6)c(S(=O)(=O)C(F)(F)F)c5)cc4)CC3)c2)c(-c2ccc(Cl)cc2)n1C(C)C	52.8%

----------
Tested on: SYO-1 complex spheroid growth, percent test/control
MEASUREMENT_DESCRIPTION: Anticancer human tumor SYO-1 cell line growth inhibition [Asc];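 note: compound exposure lasted 7 days after spheroids grew 3 days; 100% = DMSO vehicle control viability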
PARTICULARS: second compound 0.316 µM; first compound 0.0316 µM; hits give low values

COMPOUND	SCALE_UNIT	viability, T/C
C#Cc1c(F)ccc2cc(O)cc(-c3ncc4c(N5CC6CCC(C5)N6)nc(OCC56CCCN5CC(F)C6)nc4c3F)c12 (configuration not stated) + Cc1c(S(C)(=O)=O)c(-c2cc(F)cc(N3CCN(c4ccc(NS(=O)(=O)c5ccc(NC(CCN6CCC(C(=O)OCCCP(=O)(O)O)CC6)CSc6ccccc6)c(S(=O)(=O)C(F)(F)F)c5)cc4)CC3)c2)c(-c2ccc(Cl)cc2)n1C(C)C	%	93.8
CCN1CCN(Cc2ccc(Nc3ncc(F)c(-c4cc(F)c5nc(C)n(C(C)C)c5c4)n3)nc2)CC1 + Cc1c(S(C)(=O)=O)c(-c2cc(F)cc(N3CCN(c4ccc(NS(=O)(=O)c5ccc(NC(CCN6CCC(C(=O)OCCCP(=O)(O)O)CC6)CSc6ccccc6)c(S(=O)(=O)C(F)(F)F)c5)cc4)CC3)c2)c(-c2ccc(Cl)cc2)n1C(C)C	%	108

----------
Tested on: SYO-1 complex spheroid growth, percent test/control
MEASUREMENT_DESCRIPTION: Anticancer human tumor SYO-1 cell line growth inhibition [Asc];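 note: compound exposure lasted 7 days after spheroids grew 3 days; 100% = DMSO vehicle control viability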
PARTICULARS: second compound 10 µM; first compound 0.1 µM; hits give low values

COMPOUND	SYSTEM_TESTED	viability, T/C [%]
CNC(C)C(=O)NC1CN(S(=O)(=O)c2cccc(S(=O)(=O)N3CCC4CCC(C(=O)NC(c5ccccc5)c5ccccc5)N4C(=O)C(NC(=O)C(C)NC)C3)c2)CCC2CCC(C(=O)NC(c3ccccc3)c3ccccc3)N2C1=O (configuration not stated) + Cc1c(S(C)(=O)=O)c(-c2cc(F)cc(N3CCN(c4ccc(NS(=O)(=O)c5ccc(NC(CCN6CCC(C(=O)OCCCP(=O)(O)O)CC6)CSc6ccccc6)c(S(=O)(=O)C(F)(F)F)c5)cc4)CC3)c2)c(-c2ccc(Cl)cc2)n1C(C)C	SYO-1 complex spheroid growth, percent test/control	72.5
C=CC(=O)N1CCN(c2nc(=O)n(-c3c(C)ccnc3C(C)C)c3nc(-c4c(O)cccc4F)c(F)cc23)C(C)C1 (configuration not stated) + Cc1c(S(C)(=O)=O)c(-c2cc(F)cc(N3CCN(c4ccc(NS(=O)(=O)c5ccc(NC(CCN6CCC(C(=O)OCCCP(=O)(O)O)CC6)CSc6ccccc6)c(S(=O)(=O)C(F)(F)F)c5)cc4)CC3)c2)c(-c2ccc(Cl)cc2)n1C(C)C	SYO-1 complex spheroid growth, percent test/control	81.4
NC1CCC(NC2CC2c2ccccc2)CC1 (configuration not stated) + Cc1c(S(C)(=O)=O)c(-c2cc(F)cc(N3CCN(c4ccc(NS(=O)(=O)c5ccc(NC(CCN6CCC(C(=O)OCCCP(=O)(O)O)CC6)CSc6ccccc6)c(S(=O)(=O)C(F)(F)F)c5)cc4)CC3)c2)c(-c2ccc(Cl)cc2)n1C(C)C	SYO-1 complex spheroid growth, percent test/control	79.7
O=C(c1ccc(F)c(F)c1Nc1ccc(I)cc1F)N1CC(O)([C@@H]2CCCCN2)C1 + Cc1c(S(C)(=O)=O)c(-c2cc(F)cc(N3CCN(c4ccc(NS(=O)(=O)c5ccc(NC(CCN6CCC(C(=O)OCCCP(=O)(O)O)CC6)CSc6ccccc6)c(S(=O)(=O)C(F)(F)F)c5)cc4)CC3)c2)c(-c2ccc(Cl)cc2)n1C(C)C	SYO-1 complex spheroid growth, percent test/control	85.6
C=C(F)C(=O)N1CCN(c2nc(OCC3CCCN3C)nc3c2CCN(c2cccc4cccc(Cl)c24)C3)CC1CC#N (configuration not stated) + Cc1c(S(C)(=O)=O)c(-c2cc(F)cc(N3CCN(c4ccc(NS(=O)(=O)c5ccc(NC(CCN6CCC(C(=O)OCCCP(=O)(O)O)CC6)CSc6ccccc6)c(S(=O)(=O)C(F)(F)F)c5)cc4)CC3)c2)c(-c2ccc(Cl)cc2)n1C(C)C	SYO-1 complex spheroid growth, percent test/control	78.9
COc1c(OCCCN2CCOCC2)ccc2c3n(c(=NC(=O)c4cnc(N)nc4)nc12)CCN3 + Cc1c(S(C)(=O)=O)c(-c2cc(F)cc(N3CCN(c4ccc(NS(=O)(=O)c5ccc(NC(CCN6CCC(C(=O)OCCCP(=O)(O)O)CC6)CSc6ccccc6)c(S(=O)(=O)C(F)(F)F)c5)cc4)CC3)c2)c(-c2ccc(Cl)cc2)n1C(C)C	SYO-1 complex spheroid growth, percent test/control	62
C#Cc1c(F)ccc2cc(O)cc(-c3ncc4c(N5CC6CCC(C5)N6)nc(OCC56CCCN5CC(F)C6)nc4c3F)c12 (configuration not stated) + Cc1c(S(C)(=O)=O)c(-c2cc(F)cc(N3CCN(c4ccc(NS(=O)(=O)c5ccc(NC(CCN6CCC(C(=O)OCCCP(=O)(O)O)CC6)CSc6ccccc6)c(S(=O)(=O)C(F)(F)F)c5)cc4)CC3)c2)c(-c2ccc(Cl)cc2)n1C(C)C	SYO-1 complex spheroid growth, percent test/control	76.9
